All figures here come from paper PMC5706701.

Reported Raw Signal by item:
Biological target: Human IP6K1 (Homo sapiens, UniProt Q92551)
Construct: GST (N, cleaved yes); made in house; host or cells: C43 E. coli, pGEX-6P-2
Sequence (Q92551 whole entry): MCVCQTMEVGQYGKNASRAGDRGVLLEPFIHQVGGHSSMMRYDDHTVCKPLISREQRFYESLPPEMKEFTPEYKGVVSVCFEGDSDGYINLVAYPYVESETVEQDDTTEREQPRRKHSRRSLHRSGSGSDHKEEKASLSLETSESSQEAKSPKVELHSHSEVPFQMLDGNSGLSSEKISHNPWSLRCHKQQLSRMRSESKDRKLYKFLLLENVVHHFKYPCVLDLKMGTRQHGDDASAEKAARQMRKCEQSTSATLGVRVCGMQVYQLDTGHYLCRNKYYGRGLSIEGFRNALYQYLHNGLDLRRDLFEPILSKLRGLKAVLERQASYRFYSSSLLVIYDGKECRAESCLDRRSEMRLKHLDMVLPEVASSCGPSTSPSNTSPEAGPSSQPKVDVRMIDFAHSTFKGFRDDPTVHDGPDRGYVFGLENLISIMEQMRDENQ
Assay: IP6K1 high-throughput screen of the Sigma LOPAC (ADP-Glo Max, single point);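 also: final compound concentration 10µM in 5% DMSO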
Type: biochemical
Settings: LOPAC single-point screen, ADP-Glo Max raw signal per well
Number, no unit, nothing else.

Examples from the recorded data:
# molecule, measured_quantity, measured_value
measured = [
    ("O=C(O)CP(=O)(O)O", "Raw Signal", 54653),
    ("Cl.N[C@@H](CCC(=O)O)C(=O)O [L-Glutamic acid hydrochloride]", "Raw Signal", 55889),
]

Turning to the following molecule.
# input Entry Cl.c1ccc2c(N3CCNCC3)cccc2c1 [1-(1-Naphthyl)piperazine hydrochloride] has what Raw Signal?
# output 55645

* * *

Biological target: Human IP6K1 (Homo sapiens)
Construct: GST (N, cleaved yes); made in house; host or cells: C43 E. coli, pGEX-6P-2
Test: IP6K1 high-throughput screen of the Sigma LOPAC (ADP-Glo Max, single point);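 also: final compound concentration 10µM in 5% DMSO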
Format: biochemical
Details: Sigma LOPAC single-point screen; Z-score from plate average and StDev
Where a name gives a salt, the structure may show the parent alone.
In this scheme, each record receives a class according to its Z-score; the ranges are lo (below 0.5), med (0.5 to below 1), hi (1 or more)

Example entries begin here.
# compound, label
data = [
    ("COc1ccc2cc([C@H](C)C(=O)[O-])ccc2c1.[Na+] [(-)-Naproxen sodium]", "lo"),
    ("CN1CCC(=C2c3ccccc3C=Cc3ccccc32)CC1 [Cyproheptadine hydrochloride]", "med"),
    ("O=C(NCCNCC(O)COc1ccc(O)cc1)N1CCOCC1 (stereo not drawn) [Xamoterol hemifumarate]", "med"),
    ("CC(C)Cc1ccc(C(C)C(=O)O)cc1 (racemic) [(±)-Ibuprofen]", "lo"),
    ("CN1CCN(CCCN2c3ccccc3Sc3ccc(C(F)(F)F)cc32)CC1 [Trifluoperazine dihydrochloride]", "lo"),
]

# input Looking at CC(=O)O[C@]1(C(C)=O)CC[C@H]2[C@@H]3C=C(Cl)C4=CC(=O)[C@@H]5C[C@@H]5[C@]4(C)[C@H]3CC[C@@]21C [Cyproterone acetate] , which class would you pick?
# output med

# input Now the compound CCc1cccc2c3c([nH]c12)C(CC)(CC(=O)O)OCC3 (stereo not drawn)
# output hi

# input Now the compound N[C@H](C(=O)O)c1cc(O)no1 (racemic) [(±)-Ibotenic acid]
# output med

# input Now the compound C=CCn1c(=O)c2c(nc(-c3ccc(S(=O)(=O)O)cc3)n2C)n(C)c1=O
# output hi

# input Now the compound CN[C@H](CC(=O)O)C(=O)O
# output lo

# input Now the compound CC(CN1c2ccccc2Sc2ccccc21)N(C)C (stereo not drawn) [Promethazine hydrochloride]
# output med

# input Now the compound Cl.NCCNC(=O)c1ncsc1-c1cccc(F)c1 [Ro 41-1049 hydrochloride]
# output med

* * *

Reported Raw Signal by item:
Molecular target: Human IP6K1 (Homo sapiens, UniProt Q92551)
Construct: GST (N, cleaved yes); made in house; host or cells: C43 E. coli, pGEX-6P-2
Experiment: IP6K1 high-throughput screen of the Sigma LOPAC (ADP-Glo Max, single point);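 also: final compound concentration 10µM in 5% DMSO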
Format: biochemical
Conditions: LOPAC single-point screen, ADP-Glo Max raw signal per well
Where a name gives a salt, the structure may show the parent alone.
Number, no unit, nothing else.

# compound, Raw Signal
data = [
    ("COc1cc2nc(N3CCN(C(=O)C4CCCO4)CC3)nc(N)c2cc1OC (centres unmarked) [Terazosin hydrochloride]", 54152),
    ("O=C(/C=C/c1ccc(O)cc1)c1ccc(O)cc1O [Isoliquiritigenin]", 53778),
    ("CCCCCCCCCCC/C=C\\C(C)(C)/C=C\\CCCC(=O)O [7,7-Dimethyl-(5Z,8Z)-eicosadienoic acid]", 53422),
    ("COc1ccc(CCN(C)CCCC(C#N)(c2cc(OC)c(OC)c(OC)c2)C(C)C)cc1OC.Cl (racemic) [(±)-Methoxyverapamil hydrochloride]", 52492),
]

# input Entry CCn1cnc2c(Nc3cccc(Cl)c3)nc(N[C@@H]3CCCC[C@@H]3N)nc21.Cl [CGP-74514A hydrochloride] has what Raw Signal?
# output 58874

# input Now the compound CN(C(=O)Cc1ccc(Cl)c(Cl)c1)C(CN1CCCC1)c1cccc(OCC(=O)O)c1.Cl (centres unmarked) [ICI 204,448 hydrochloride]
# output 53600

# input Now the compound [N-]=[N+]=Nc1ccc(C(=O)CSC[C@H](NC(=O)CC[C@H](N)C(=O)O)C(=O)NCC(=O)O)cc1 [S-(p-Azidophenacyl)glutathione]
# output 57217

* * *

Biological target: Human IP6K1 (Homo sapiens)
Construct: GST (N, cleaved yes); made in house; host or cells: C43 E. coli, pGEX-6P-2
Assay: IP6K1 high-throughput screen of the Sigma LOPAC (ADP-Glo Max, single point);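 also: final compound concentration 10µM in 5% DMSO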
Format: biochemical
Conditions: Sigma LOPAC single-point screen; Z-score from plate average and StDev
Where a name gives a salt, the structure may show the parent alone.
Lab note: compare Z-score with 0.7, writing true (1) if less and false (0) if equal or more.

Example entries begin here.
# molecule, label
records = [
    ("N.S=C(S)N1CCCC1 [Ammonium pyrrolidinedithiocarbamate]", "false (0)"),
    ("CCCCNc1cc(C(=O)O)cc(S(N)(=O)=O)c1Oc1ccccc1 [Bumetanide]", "false (0)"),
    ("Cl.O=C(O)C1=CCCN(CCON=C(c2ccccc2)c2ccccc2)C1 [NO-711 hydrochloride]", "false (0)"),
]

# input # check: Z-score < 0.7 for C[C@]12C=CC(=O)C=C1CC[C@H]1[C@@H]3C[C@@H](O)[C@](O)(C(=O)CO)[C@@]3(C)C[C@H](O)[C@@]12F [Triamcinolone]
# output false (0)

# input Now the molecule COc1cc2c(cc1C(F)(F)F)N(C(=O)Nc1cc(F)cc(-c3cccnc3)c1)CC2 [SB 228357]
# output false (0)

# input Now the molecule CN1C(C)(C)CCCC1(C)C [Pempidine tartrate]
# output true (1)

# input Now the molecule CN1CCN(CCCN2c3ccccc3Sc3ccc(Cl)cc32)CC1 [Prochlorperazine dimaleate]
# output true (1)

# input Now the molecule C=C(C)[C@H]1Cc2c(ccc3c2O[C@@H]2COc4cc(OC)c(OC)cc4[C@@H]2C3=O)O1 [Rotenone]
# output false (0)

* * *

Target: Human IP6K1 (Homo sapiens, UniProt Q92551)
Construct: GST (N, cleaved yes); made in house; host or cells: C43 E. coli, pGEX-6P-2
Assay: IP6K1 high-throughput screen of the Sigma LOPAC (ADP-Glo Max, single point);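 also: final compound concentration 10µM in 5% DMSO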
Assay type: biochemical
Details: LOPAC single-point screen; Z-score from raw signal with plate average and StDev
Counter-ions that a name gives are not always drawn.
measured_quantity: Z-score
Number, no unit, nothing else.

# input Entry Oc1ccc2c3c1O[C@H]1c4[nH]c5ccccc5c4C[C@@]4(O)[C@@H](C2)N(CC2CC2)CC[C@]314 [Naltrindole hydrochloride] has what Z-score?
# output -0.1096

# input Now the compound N[C@@H]1CONC1=O (racemic) [DL-Cycloserine]
# output -0.4331

# input Now the compound C/C(=C\c1ccc(C(=O)O)cc1)c1ccc2c(c1)C(C)(C)CCC2(C)C [TTNPB]
# output -0.4225

# input Now the compound COC(=O)[C@H]1[C@H]2C[C@H]3c4[nH]c5ccccc5c4CCN3C[C@H]2CC[C@@H]1O [Rauwolscine hydrochloride]
# output -0.1995

* * *

Target: Human IP6K1 (Homo sapiens)
Construct: GST (N, cleaved yes); made in house; host or cells: C43 E. coli, pGEX-6P-2
Assay: IP6K1 high-throughput screen of the Sigma LOPAC (ADP-Glo Max, single point);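 also: final compound concentration 10µM in 5% DMSO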
Type: biochemical
Details: LOPAC single-point screen; Z-score from raw signal with plate average and StDev
Structures can show the parent of a compound that is named as a salt.
measured_quantity: Z-score
Number, no unit, nothing else.

# molecule, measured_target, Z-score
rows = [
    ("CCCN(CCC)C(=O)C(CCC(=O)O)NC(=O)c1ccccc1 (stereo not shown) [Proglumide]", "Human IP6K1 (Homo sapiens)", -0.2019),
]

# input Entry CC(C)NCC(O)COc1ccc(CC(N)=O)cc1 (racemic) [(±)-Atenolol] has what Z-score?
# output -0.2545

# input Now the molecule CC(C)[C@@H]1NC(=O)[C@H](CCCCN)NC(=O)[C@@H](Cc2c[nH]c3ccccc23)NC(=O)[C@H](Cc2ccc(O)cc2)NC(=O)[C@H](C)N(C)C(=O)[C@H](Cc2ccccc2)NC1=O [Seglitide]
# output -0.1931

# input Now the molecule CN1C[C@@H](NS(=O)(=O)N(C)C)C[C@@H]2c3cccc4c3c(cn4C)C[C@H]21 [Mesulergine hydrochloride]
# output -0.093
